Assay: Cytotoxicity against BALB/c mouse 3T3 clone A31 cells after 48 hrs by SRB assay method
Assay type: cell-based
Conditions: A31, 48 h
Measurement Kind: pIC50
Worth noting: pIC50 values are minus log10 of concentrations stated in mol/L.

Past entries and their recorded results:
INSERT INTO assay_data (chemical_string, measurement_kind, reading) VALUES
  ('CN(C)CCNc1nccn2c(-c3ccncc3)c(-c3ccccc3)nc12', 'pIC50', 4.06),
  ('CN(C)CCNc1nccn2c(I)c(-c3ccccc3)nc12', 'pIC50', 4.50);

Turning to the following compound.
*Q* Look at this compound and give its reported pIC50. "CN(C)c1nccn2c(I)c(-c3ccc(F)cc3)nc12"
*A* 4.00

----------
Test: Inhibition of native porcine brain CK1 delta/epsilon using RRKHAAIGpSAYSITA as substrate and [gamma-33P]ATP after 30 mins by scintillation counting
Set-up: species or system Sus scrofa
Measured pIC50, listed per entry for reference.
Worth noting: pIC50 values are minus log10 of concentrations stated in mol/L.

*Q* Look at this compound and give its reported pIC50. "c1ccc(-c2nc3cnccn3c2-c2ccncc2)cc1"
*A* 5.48

*Q* Look at this compound and give its reported pIC50. "CN(C)CCNc1nccn2c(-c3ccncc3)c(-c3ccc(F)cc3)nc12"
*A* 5.80

*Q* Look at this compound and give its reported pIC50. "CN(C)c1nccn2c(-c3ccncc3)c(-c3ccccc3)nc12"
*A* 5.62

----------
Measured selectivity ratio, listed per entry for reference.
Assay: Therapeutic index, ratio of IC50 for BALB/c mouse peritoneal macrophages to IC50 for amastigote form of Leishmania major (MHOM/IL/81/BNI) in BALB/c mouse peritoneal macrophages
Conditions: read-out: Ratio IC50
Lab note: record just the number, no unit beside it.

INSERT INTO measurements (compound, measurement_kind, reading) VALUES
  ('Fc1ccc(-c2nc3c(NCCN4CCOCC4)nccn3c2I)cc1', 'selectivity ratio', 466),
  ('CN(C)c1nccn2c(-c3ccncc3)c(-c3ccccc3)nc12', 'selectivity ratio', 15.3),
  ('N=C(N)c1ccc(OCCCCCOc2ccc(C(=N)N)cc2)cc1 [PENTAMIDINE]', 'selectivity ratio', 50.9),
  ('CN(C)c1nccn2c(-c3ccncc3)c(-c3ccc(F)cc3)nc12', 'selectivity ratio', 52.5);

*Q* Look at this compound and give its reported selectivity ratio. "c1ccc(-c2nc3cnccn3c2-c2ccncc2)cc1"
*A* 57

----------
Measured GI50 at 48 h, listed per entry for reference.
Experiment: Cytotoxicity against human M14 cells assessed as growth inhibition after 48 hrs by SRB assay method
Assay type: cell-based

INSERT INTO assay_data (compound, measurement_kind, reading) VALUES
  ('CN(C)CCNc1nccn2c(-c3ccncc3)c(-c3ccc(F)cc3)nc12', 'GI50 at 48 h', '19 µg/mL'),
  ('CN(C)c1nccn2c(-c3ccncc3)c(-c3ccccc3)nc12', 'GI50 at 48 h', '84 µg/mL'),
  ('CN(C)CCNc1nccn2c(-c3ccncc3)c(-c3ccccc3)nc12', 'GI50 at 48 h', '27 µg/mL'),
  ('CN(C)c1nccn2c(I)c(-c3ccc(F)cc3)nc12', 'GI50 at 48 h', '> 125 µg/mL'),
  ('O=c1[nH]cc(F)c(=O)[nH]1 [FLUOROURACIL]', 'GI50 at 48 h', '0.7 µg/mL');

*Q* Look at this compound and give its reported GI50 at 48 h. "CN(C)c1nccn2c(-c3ccncc3)c(-c3ccc(F)cc3)nc12"
*A* > 125 µg/mL

*Q* Look at this compound and give its reported GI50 at 48 h. "CN(C)CCNc1nccn2c(I)c(-c3ccccc3)nc12"
*A* 4 µg/mL

*Q* Look at this compound and give its reported GI50 at 48 h. "CN(C)c1nccn2c(I)c(-c3ccccc3)nc12"
*A* > 125 µg/mL

*Q* Look at this compound and give its reported GI50 at 48 h. "Fc1ccc(-c2nc3c(NCCN4CCOCC4)nccn3c2I)cc1"
*A* > 125 µg/mL

*Q* Look at this compound and give its reported GI50 at 48 h. "Ic1c(-c2ccccc2)nc2c(NCCN3CCOCC3)nccn12"
*A* 179 µg/mL

*Q* Look at this compound and give its reported GI50 at 48 h. "Fc1ccc(-c2nc3c(NCCN4CCOCC4)nccn3c2-c2ccncc2)cc1"
*A* 36 µg/mL

*Q* Look at this compound and give its reported GI50 at 48 h. "CN(C)CCNc1nccn2c(I)c(-c3ccc(F)cc3)nc12"
*A* 4 µg/mL

----------
Assay: Cytotoxicity against human HT-29 cells assessed as growth inhibition after 48 hrs by SRB assay method
Assay type: cell-based
Measured GI50 at 48 h, listed per entry for reference.
Please state the figure in µg/mL; there is no need to write the unit.

INSERT INTO results (molecule, reading) VALUES
  ('CN(C)CCNc1nccn2c(I)c(-c3ccccc3)nc12', 4),
  ('CN(C)CCNc1nccn2c(-c3ccncc3)c(-c3ccccc3)nc12', 6),
  ('CN(C)CCNc1nccn2c(-c3ccncc3)c(-c3ccc(F)cc3)nc12', 8),
  ('CN(C)CCNc1nccn2c(I)c(-c3ccc(F)cc3)nc12', 4);

Turning to the following molecule.
*Q* Look at this molecule and give its reported GI50 at 48 h. "Ic1c(-c2ccccc2)nc2c(NCCN3CCOCC3)nccn12"
*A* 22

----------
Measured selectivity ratio, listed per entry for reference.
Assay: Therapeutic index, ratio of IC50 for BALB/c mouse 3T3 clone A31 cells to IC50 for promastigote form of Leishmania major (MHOM/IL/81/BNI)
Assay type: cell-based
Conditions: read-out: Ratio IC50
Lab note: record just the number, no unit beside it.

Past entries and their recorded results:
INSERT INTO results (chemical_string, reading) VALUES
  ('CN(C)CCNc1nccn2c(-c3ccncc3)c(-c3ccccc3)nc12', 1.3),
  ('CN(C)c1nccn2c(I)c(-c3ccccc3)nc12', 5.3),
  ('CN(C)c1nccn2c(-c3ccncc3)c(-c3ccccc3)nc12', 5),
  ('CN(C)CCNc1nccn2c(-c3ccncc3)c(-c3ccc(F)cc3)nc12', 2.9),
  ('Fc1ccc(-c2nc3c(NCCN4CCOCC4)nccn3c2-c2ccncc2)cc1', 2.9),
  ('CN(C)CCNc1nccn2c(I)c(-c3ccc(F)cc3)nc12', 0.8),
  ('Ic1c(-c2ccccc2)nc2c(NCCN3CCOCC3)nccn12', 22.3);

Turning to the following compound.
*Q* Look at this compound and give its reported selectivity ratio. "CN(C)CCNc1nccn2c(I)c(-c3ccccc3)nc12"
*A* 1.3

----------
Experiment: Inhibition of Leishmania major CK1.2 using RRKHAAIGpSAYSITA as substrate and [gamma-33P]ATP after 30 mins by scintillation counting
Measured pIC50, listed per entry for reference.
Worth noting: pIC50 values are minus log10 of concentrations stated in mol/L.

*Q* Look at this compound and give its reported pIC50. "CN(C)CCNc1nccn2c(-c3ccncc3)c(-c3ccccc3)nc12"
*A* 6.29

*Q* Look at this compound and give its reported pIC50. "CN(C)c1nccn2c(-c3ccncc3)c(-c3ccccc3)nc12"
*A* 6.32

*Q* Look at this compound and give its reported pIC50. "CN(C)c1nccn2c(-c3ccncc3)c(-c3ccc(F)cc3)nc12"
*A* 6.00

*Q* Look at this compound and give its reported pIC50. "Fc1ccc(-c2nc3c(NCCN4CCOCC4)nccn3c2-c2ccncc2)cc1"
*A* 6.21

----------
Measured selectivity ratio, listed per entry for reference.
Assay: Therapeutic index, ratio of IC50 for BALB/c mouse peritoneal macrophages to IC50 for promastigote form of Leishmania major (MHOM/IL/81/BNI)
Conditions: read-out: Ratio IC50

INSERT INTO assay_data (compound, measurement_kind, reading) VALUES
  ('Fc1ccc(-c2nc3c(NCCN4CCOCC4)nccn3c2I)cc1', 'selectivity ratio', 33.3),
  ('CN(C)CCNc1nccn2c(I)c(-c3ccccc3)nc12', 'selectivity ratio', 2.8),
  ('c1ccc(-c2nc3cnccn3c2-c2ccncc2)cc1', 'selectivity ratio', 7.7),
  ('COc1ccc(-c2c(-c3ccccc3)nc3cnccn23)cc1', 'selectivity ratio', 3.5),
  ('CN(C)CCNc1nccn2c(-c3ccncc3)c(-c3ccccc3)nc12', 'selectivity ratio', 0.9),
  ('CN(C)c1nccn2c(-c3ccncc3)c(-c3ccc(F)cc3)nc12', 'selectivity ratio', 6.6),
  ('N=C(N)c1ccc(OCCCCCOc2ccc(C(=N)N)cc2)cc1 [PENTAMIDINE]', 'selectivity ratio', 33.2),
  ('Clc1cccc(-c2c(-c3ccccc3)nc3cnccn23)c1', 'selectivity ratio', 3.5),
  ('CN(C)CCNc1nccn2c(-c3ccncc3)c(-c3ccc(F)cc3)nc12', 'selectivity ratio', 1.6),
  ('CN(C)CCNc1nccn2c(I)c(-c3ccc(F)cc3)nc12', 'selectivity ratio', 1.4);

Turning to the following compound.
*Q* Look at this compound and give its reported selectivity ratio. "CN(C)c1nccn2c(I)c(-c3ccccc3)nc12"
*A* 4.3
